# Kd per record follows
# assaySystem: T1, GFP-9S library array, motif 4 ND N98C;D124Q (synthetic construct, N98C;D124Q)
# T1 chain: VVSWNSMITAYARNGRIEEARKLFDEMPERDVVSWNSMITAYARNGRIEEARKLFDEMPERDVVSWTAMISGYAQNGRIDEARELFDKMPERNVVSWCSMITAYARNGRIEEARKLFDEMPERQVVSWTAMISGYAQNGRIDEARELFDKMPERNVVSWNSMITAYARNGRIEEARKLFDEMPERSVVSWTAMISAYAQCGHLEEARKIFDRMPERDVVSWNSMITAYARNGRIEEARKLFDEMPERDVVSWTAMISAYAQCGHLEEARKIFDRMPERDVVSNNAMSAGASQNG
# assayMethodText: high-throughput RNA pulldown from lysate on Ni-NTA beads; HRP: 50 mM Tris pH 8, 150 mM NaCl, 1 mM beta-mercaptoethanol, 50 ug/ml BSA, 3 ug/ml yeast RNA, 0.5% heparin; ITC and FP: Tris pH 8, 200 mM KCl, 5% glycerol; MST: 50 mM Tris pH 8, 200 mM NaCl, 1 mM DTT, BSA, heparin, 0.05% Tween 20
# conditions: tags: N-terminal His-eGFP; label: 5' Cy5

| binder | Kd |
| --- | --- |
| AUUAGACGUGA (ssRNA) [Cy5-rpoA-G] | 150 nM |
| AUUACACGUGA (ssRNA) [Cy5-rpoA] | 127 nM |
